Where do these numbers come from? They come from patent US4455292A.

Test Target: human brain hexokinase (Homo sapiens, UniProt P19367)
Sequence (P19367 whole entry): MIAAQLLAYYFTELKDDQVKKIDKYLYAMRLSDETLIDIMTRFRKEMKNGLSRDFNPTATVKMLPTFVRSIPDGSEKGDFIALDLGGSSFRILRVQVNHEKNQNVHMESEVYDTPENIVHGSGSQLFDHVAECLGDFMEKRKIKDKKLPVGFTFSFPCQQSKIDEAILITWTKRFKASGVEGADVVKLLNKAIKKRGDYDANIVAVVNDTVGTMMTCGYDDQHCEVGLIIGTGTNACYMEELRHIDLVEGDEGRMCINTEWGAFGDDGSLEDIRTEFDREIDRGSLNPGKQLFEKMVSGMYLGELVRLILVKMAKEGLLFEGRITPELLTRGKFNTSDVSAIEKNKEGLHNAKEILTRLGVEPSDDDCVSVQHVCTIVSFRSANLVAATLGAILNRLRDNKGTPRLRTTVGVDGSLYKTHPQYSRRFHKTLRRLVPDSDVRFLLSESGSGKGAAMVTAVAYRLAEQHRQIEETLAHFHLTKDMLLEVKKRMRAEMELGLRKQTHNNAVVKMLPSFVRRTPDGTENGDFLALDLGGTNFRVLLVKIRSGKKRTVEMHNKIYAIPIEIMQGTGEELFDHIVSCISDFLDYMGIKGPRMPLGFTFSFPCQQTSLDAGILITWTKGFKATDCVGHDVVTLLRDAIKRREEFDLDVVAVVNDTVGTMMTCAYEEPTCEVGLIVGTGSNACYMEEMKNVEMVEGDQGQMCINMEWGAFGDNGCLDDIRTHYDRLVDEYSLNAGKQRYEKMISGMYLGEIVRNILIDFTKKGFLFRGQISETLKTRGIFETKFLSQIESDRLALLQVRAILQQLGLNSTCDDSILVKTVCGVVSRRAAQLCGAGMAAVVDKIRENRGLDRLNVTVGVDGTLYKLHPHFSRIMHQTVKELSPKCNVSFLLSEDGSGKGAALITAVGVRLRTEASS
Experimental Endpoint: pKi
Quick note: pKi means taking -log10 of the concentration in moles per liter.

Entry CC(=O)Nc1c(I)c(C(=O)N[C@H]2C(O)O[C@H](CO)[C@@H](O)[C@@H]2O)c(I)c(N(C)C(C)=O)c1I (stereo partly shown) [metrizamide] , pKi reported as 2.60
